Catalogue of Ki readings, one per entry.
# Tested system: Neuronal acetylcholine receptor subunit alpha-7 (Rattus norvegicus, UniProt Q05941)
# Sequence (Q05941 whole entry): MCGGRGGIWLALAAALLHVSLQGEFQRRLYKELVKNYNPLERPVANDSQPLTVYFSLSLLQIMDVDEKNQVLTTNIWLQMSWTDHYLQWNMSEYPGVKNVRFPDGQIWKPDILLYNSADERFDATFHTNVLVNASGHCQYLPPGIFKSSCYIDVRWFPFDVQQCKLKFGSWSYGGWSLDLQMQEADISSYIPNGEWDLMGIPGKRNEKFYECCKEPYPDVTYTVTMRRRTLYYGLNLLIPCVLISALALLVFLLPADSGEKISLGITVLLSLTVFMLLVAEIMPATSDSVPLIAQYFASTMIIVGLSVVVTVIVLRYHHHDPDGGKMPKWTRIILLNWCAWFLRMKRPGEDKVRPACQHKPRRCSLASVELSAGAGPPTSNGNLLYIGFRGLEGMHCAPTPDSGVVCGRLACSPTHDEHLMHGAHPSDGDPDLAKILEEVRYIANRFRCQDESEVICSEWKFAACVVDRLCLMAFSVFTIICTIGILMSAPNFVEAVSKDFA
# Protocol text: Displacement of [3H]-methyllycaconitine from alpha7* nAChR in rat brain P2 membranes after 2.5 hrs by liquid scintillation spectrometry

| Smiles entry | Ki |
| --- | --- |
| N[C@@H]1[C@H]2CC[C@H](C2)[C@H]1c1cccnc1 | > 1000 nM |
| CN(C)[C@@H]1[C@H]2CC[C@H](C2)[C@H]1c1ccc(Cl)nc1 | > 1000 nM |
| CN(C)[C@@H]1[C@@H]2CC[C@@H](C2)[C@H]1c1cccnc1 | > 1000 nM |
| CN[C@@H]1[C@H]2CC[C@H](C2)[C@H]1c1cccnc1 | > 1000 nM |
| N[C@@H]1[C@@H]2CC[C@@H](C2)[C@H]1c1cccnc1 | 46 nM |
| CN(C)[C@@H]1[C@H]2CC[C@H](C2)[C@H]1c1cccnc1 | > 1000 nM |
| CN[C@@H]1[C@@H]2CC[C@@H](C2)[C@H]1c1ccc(Cl)nc1 | 116 nM |
| CN(C)[C@@H]1[C@@H]2CC[C@@H](C2)[C@H]1c1ccc(Cl)nc1 | > 1000 nM |
| CN[C@@H]1[C@@H]2CC[C@@H](C2)[C@H]1c1cccnc1 | 352 nM |
| N[C@@H]1[C@H]2CC[C@H](C2)[C@H]1c1ccc(Cl)nc1 | 227 nM |
| N[C@@H]1[C@@H]2CC[C@@H](C2)[C@H]1c1ccc(Cl)nc1 | 10.5 nM |
